# system: SMYD2 (Homo sapiens)
# Sequence (Q9NRG4 whole entry): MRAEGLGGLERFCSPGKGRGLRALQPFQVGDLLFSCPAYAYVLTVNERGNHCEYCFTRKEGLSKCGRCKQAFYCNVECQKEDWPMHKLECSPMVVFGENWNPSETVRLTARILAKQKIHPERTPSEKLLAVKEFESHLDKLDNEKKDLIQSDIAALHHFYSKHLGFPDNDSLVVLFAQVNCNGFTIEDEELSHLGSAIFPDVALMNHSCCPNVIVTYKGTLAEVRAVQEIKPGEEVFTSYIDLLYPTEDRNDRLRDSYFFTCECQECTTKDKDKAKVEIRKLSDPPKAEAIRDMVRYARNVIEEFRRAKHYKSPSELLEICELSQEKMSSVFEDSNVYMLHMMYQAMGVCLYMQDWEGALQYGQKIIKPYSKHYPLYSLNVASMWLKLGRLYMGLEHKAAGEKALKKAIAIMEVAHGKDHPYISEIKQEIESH
# method: Intracellular BTF3 monomethylation (BTF3me1) western blot
# Type: cell-based
# Set-up: endogenous in cells; host or cells: 313 cancer cell lines
# recorded_conditions: read-out: Intracellular Methylation IC50
metric: pIC50
Numbers only, as −log10 of the molar value.

A selection of reference data follows.
molecule	system	pIC50
O=C(NC1CN(Cc2cnn(Cc3ccccc3)c2)C1)c1cn(C2CC2)nn1	SMYD2 (Homo sapiens)	7.51
O=C1COc2c(CCNCCN(C(=O)CCNCCc3ccc(Cl)c(Cl)c3)C3CCCCC3)ccc(O)c2N1 [AZ505, reference compound]	SMYD2 (Homo sapiens)	4.86

## Input Can you share its pIC50? I mean this molecule: `O=C(NC1CN(Cc2cnn(Cc3ccc(Cl)cc3)c2)C1)c1cn(C2CC2)nn1`
## Output 8.54

###

# method: Monkey (NHP) pharmacokinetic study
# Assay type: in vivo, male cynomolgus monkeys
# recorded_conditions: cynomolgus monkey, plasma, male Cynomolgus, IV 1 mg/kg, PO 5 mg/kg
# Procedure: 2. […] Food was returned 4 hours after dosing. […] 4. […] Food was returned 4 hours after dosing. […] Supplemental Results:SMYD2 compound characterization […] The […] nM (Figure S8A).
metric: half-life (h)
Numbers only, in h.

## Input Item under review: NC1CCC(S(=O)(=O)N2C3CCC2CC(NC(=O)c2cc(C4CC4)on2)C3)CC1 (stereo not shown) [EPZ028862] . Reported half-life?
## Output 5.6

###

# System: panel of 240 cancer cell lines
# method: Proliferation in a broad panel of 240 cancer cell lines, 2D culture (Eurofins Panlabs Oncopanel)
# Format: cell-based
# recorded_conditions: Homo sapiens, 769-P, Kidney; read-out: IC50
metric: IC50

## Input Endpoint output: IC50 of NC1CCC(S(=O)(=O)N2C3CCC2CC(NC(=O)c2cc(C4CC4)on2)C3)CC1 (stereo not shown) . Value?
## Output > 25 µM

###

# method: in vitro
# Type: in vitro ADME, humans
# recorded_conditions: both sexes, human, microsomes, pH 7.4, CLint measured with liver microsomes
metric: microsomal CLint at 1 µM

## Input May I ask what microsomal CLint at 1 µM has been recorded for NC1CCC(S(=O)(=O)N2C3CCC2CC(NC(=O)c2cc(C4CC4)on2)C3)CC1 (stereo not shown) ?
## Output < 3 µL/min/mg

###

# method: Dog pharmacokinetic study
# Type: in vivo, male beagle dogs
# recorded_conditions: plasma, male Beagle, IV 1 mg/kg, PO 5 mg/kg
# Procedure: 2. […] Food was returned 4 hours after dosing. […] 4. […] Food was returned 4 hours after dosing. […] Supplemental Results:SMYD2 compound characterization […] The […] nM (Figure S8A).
metric: half-life (h)
One number for each entry, in h.

## Input Please give the measured half-life for this molecule: NC1CCC(S(=O)(=O)N2C3CCC2CC(NC(=O)c2cc(C4CC4)on2)C3)CC1 (stereo not shown)
## Output 5.4

###

# System: panel of 240 cancer cell lines
# method: Proliferation in a broad panel of 240 cancer cell lines, 2D culture (Eurofins Panlabs Oncopanel)
# Type: cell-based
# recorded_conditions: Homo sapiens, SK-BR-3, SK-BR-3, Breast; read-out: IC50
metric: IC50

## Input Quick check: IC50 of NC1CCC(S(=O)(=O)N2C3CCC2CC(NC(=O)c2cc(C4CC4)on2)C3)CC1 (stereo not shown) [EPZ028862] ?
## Output > 25 µM
